- experimental-protocol: qHTS assay to identify small molecule agonists of the estrogen related receptor (ERR) signaling pathway from Tox21 library (AID 1224849); note: % is set by controls: 0 for no effect and ±100 for the full control effect; nearly all actives have a fitted effect of over 15% in size
- measurement-conditions: ERR reporter cell line, ONE-Glo luciferase, 18 h; at 92.4 µM (top of the series) unless noted
Active and inactive are the calls of the source. Calls come from the whole dose curve.
Reported activity change, positive = activation by item:

Solved cases (6 shown):
| compound | measured-result |
| --- | --- |
| O=C1c2cccc(O)c2C(=O)c2c(O)cc(CO)cc21 | -22.2% (inactive) |
| COc1ccc2[nH]c(S(=O)Cc3ncc(C)c(OC)c3C)nc2n1 (configuration not stated) | -23.9% [at 42.5 µM] (inactive) |
| C=CC[N+]1([C@H]2C[C@H]3[C@@H]4CC[C@H]5C[C@H](OC(C)=O)[C@@H](N6CCCCC6)C[C@]5(C)[C@H]4CC[C@]3(C)[C@H]2OC(=O)CC)CCCCC1 | -0.214% [at 42.5 µM] (inactive) |
| Cc1cc(O)ccc1N | -16.6% (inactive) |
| Cc1occc1S | 9.5% (inactive) |
| CCCCCCCCC(CO)CCCCCC (configuration not stated) | 4.04% (inactive) |

Now consider a different compound.
Ask | Form field: reported activity change, positive = activation of O=C(O)Cc1cc(I)c(Oc2ccc(O)c(I)c2)c(I)c1
Reply | -36.3% (inactive)

---

- experimental-protocol: qHTS assay to identify small molecule agonists of the hypoxia (HIF-1) signaling pathway - cell viability counter screen (AID 1224844); note: % is set by controls: 0 for no effect and ±100 for the full control effect; nearly all actives have a fitted effect of over 50% in size
- measurement-conditions: HRE-bla ME-180 viability, CellTiter-Glo luminescence, 17 h; series mostly up to 76.8 µM
Results filed as inconclusive are left out. Calls of active or inactive are those of the source. The call rests on the fitted dose curve.
observation-type: activity change, negative = cytotoxicity

Solved cases (5 shown):
| molecule | activity change, negative = cytotoxicity |
| --- | --- |
| NC[C@H]1O[C@H](O[C@H]2[C@H](O)[C@@H](O[C@H]3O[C@H](CO)[C@@H](O)[C@H](N)[C@H]3O)[C@H](N)C[C@@H]2N)[C@H](O)[C@@H](O)[C@@H]1O | -8.41% [at 6.97 µM] (inactive) |
| CCOC(=O)CC(C)C | inactive |
| O=c1[nH]cnc2ccccc12 | inactive |
| CC(C)NCC(O)COc1ccc(CC(N)=O)cc1 (stereo unspecified) | inactive |
| O=C(O)/C=C/c1cnc[nH]1 | inactive |

Ask | Form field: reported activity change, negative = cytotoxicity of O=C(C(=O)c1ccc(Br)cc1)c1ccc(Br)cc1
Reply | -11.6% [at 15.8 µM] (inactive)

---

- experimental-protocol: A CellTox Green Cytotoxicity Assay to monitor cytotoxicity in HEK293 cells - 8 hour (AID 1224884); note: % is set by controls: 0 for no effect and ±100 for the full control effect; nearly all actives have a fitted effect of over 35% in size
- measurement-conditions: CellTox Green fluorescence; series mostly up to 76.8 µM
Inconclusive results are not listed. The source made the active and inactive calls. The call rests on the fitted dose curve; in most records, active means well fitted activation curve with a large enough effect in the repeat runs; inconclusive means weak or mixed curves; inactive means flat fitted curve, though single readings scatter.
observation-type: cytotoxicity increase

Solved cases (6 shown):
| compound | cytotoxicity increase |
| --- | --- |
| O=C(O)C1CCC(C(=O)O)CC1 (centres undefined) | inactive |
| CCCCCOC(=O)COc1cc(N2C(=O)C3=C(CCCC3)C2=O)c(F)cc1Cl | inactive |
| O=C(O)C(c1ccc(Cl)cc1)c1ccc(Cl)cc1 | inactive |
| CCCCCCCCN(C)C | inactive |
| NCc1ccccc1 | inactive |
| CC(C)(C)c1cc(O)c(C(C)(C)C)cc1O | inactive |

Ask | Form field: reported cytotoxicity increase of COCCO
Reply | inactive

Ask | Query NC(=S)N/N=C/c1cccnc1 next
Reply | inactive

Ask | Query ClC(Cl)(Cl)c1ccc(C(Cl)(Cl)Cl)cc1 next
Reply | inactive

Ask | Query CC(=O)SCc1ccco1 next
Reply | inactive

Ask | Query Cn1sccc1=O next
Reply | inactive

Ask | Query Cc1cccc(C(C)(C)C)c1O next
Reply | inactive

Ask | Query Cn1c(NCCN(CCO)CCCc2ccc([N+](=O)[O-])cc2)cc(=O)n(C)c1=O next
Reply | inactive

Ask | Query CCN(CC)CCOc1ccc2c(c1)C(=O)c1cc(OCCN(CC)CC)ccc1-2 next
Reply | inactive

---

- experimental-protocol: qHTS assay for small molecule agonists of the p53 signaling pathway - cell viability (AID 651633); note: nearly all actives have a fitted effect of over 30% in size
- measurement-conditions: p53RE-bla HCT-116 viability, ATP luminescence, 16 h; series mostly up to 83.3 µM
Results filed as inconclusive are left out. Calls of active or inactive are those of the source. Calls come from the whole dose curve.
Result category, one only: y for active, n for inactive

| molecule | answer-label |
| --- | --- |
| CCCCOC(=O)/C=C\C(=O)OCCCC | n |
| CCCCCCCCCCCCCCCCCBr | n |
| CCC(C)N(C)C(=O)c1cc2ccccc2c(-c2ccccc2Cl)n1 (stereo not given) | n |
| CCOC(=S)SSC(=S)OCC | n |
| CCCCCC(CO)CCC (stereo not given) | n |
| C1=Cc2ccccc2C1 | n |
| CCCCCCCC/C=C\CCCCCCCC(N)=O | n |
| C=CC(=O)OCC(C)OCC(C)OCC(C)OC(=O)C=C (stereo not given) | y |
| O=C1c2cccc(O)c2C(=O)c2c(O)cc(CO)cc21 | n |
| O=C(O)Cn1c(C(=O)Nc2nc(-c3ccccc3Cl)cs2)cc2ccccc21 | n |

Ask | For CCN(CC)CCOC(=O)C1(c2ccccc2)CCCC1 , which call appears in the assay record?
Reply | n

Ask | Query O=S(=O)(O)c1ccc(O)c2ncccc12 next
Reply | n

Ask | Query CN(C)CCCOc1nn(Cc2ccccc2)c2ccccc12 next
Reply | n

Ask | Query CC(=O)N(O)CCCCCNC(=O)CCC(=O)N(O)CCCCCNC(=O)CCC(=O)N(O)CCCCCN next
Reply | n

Ask | Query CCc1nn(C2CCCCC2)c2cc(C3(C#N)CCC(C(=O)O)CC3)ccc12 (stereo not given) next
Reply | n

Ask | Query Oc1ccc(O)c2c(O)cccc12 next
Reply | n

---

- subject-of-test: Nuclear receptor subfamily 1 group I member 2 (Homo sapiens)
- experimental-protocol: Human pregnane X receptor (PXR) small molecule agonists, qHTS assay (AID 1346982); note: nearly all actives have a fitted effect of over 35% in size; for activation: % is set by controls: 0 for no effect and ±100 for the full control effect
- measurement-conditions: PXR-Luc HepG2, CYP3A4 luciferase reporter, 24 h; series mostly up to 92.4 µM
Inconclusive results are not listed. The source made the active and inactive calls. The call rests on the fitted dose curve; in most records, active means well fitted activation curve with a large enough effect in the repeat runs; inconclusive means weak or mixed curves; inactive means no such curve, though single readings can be large or run the other way.
Result category, one only: TRUE (active), FALSE (inactive)

| molecule | answer-label |
| --- | --- |
| CC(C)c1ccc2c(C(C)C)cc(C(C)C)c(S(=O)(=O)O)c2c1 | TRUE |

Ask | For C=CC[N+]1([C@H]2C[C@H]3[C@@H]4CC[C@H]5C[C@H](OC(C)=O)[C@@H](N6CCCCC6)C[C@]5(C)[C@H]4CC[C@]3(C)[C@H]2OC(=O)CC)CCCCC1 , which call appears in the assay record?
Reply | FALSE

Ask | Query CC(C(=O)O)c1ccc(C(=O)c2ccccc2)s1 (stereo not given) next
Reply | TRUE

Ask | Query CN1CCN(C2=Nc3cc(Cl)ccc3Nc3ccccc32)CC1 next
Reply | FALSE

Ask | Query CCCCCCCC/C=C\CCCCCCCC(N)=O next
Reply | TRUE

---

- experimental-protocol: qHTS RealTime-Glo MT Cell Viability Assay in HEK293 cells - 8 hour (AID 1224887); note: nearly all actives have a fitted effect of over 50% in size
- measurement-conditions: RealTime-Glo luminescence; series mostly up to 76.8 µM
Results filed as inconclusive are left out. Calls of active or inactive are those of the source. Calls come from the whole dose curve; as a rule, active = well fitted cell-killing curve with a large enough effect in the repeat runs; inconclusive = weak or mixed curves, or effect the other way; inactive = flat fitted curve, though single readings scatter.
Result category, one only: active, inactive

| compound | answer-label |
| --- | --- |
| CCN(CC)CCOc1ccc2c(c1)C(=O)c1cc(OCCN(CC)CC)ccc1-2 | inactive |
| Cc1nc2ccccc2n1Cc1ccc(Cl)cc1 | active |
| CC(=O)Nc1ccc(/C=N/NC(N)=S)cc1 | inactive |
| COC(=O)CSc1cc(N=c2sc(=O)n3n2CCCC3)c(F)cc1Cl | inactive |
| COC(Cc1ccccc1)OC | inactive |

Ask | For Cc1ccccn1 , which call appears in the assay record?
Reply | inactive

Ask | Query O=S1(=O)N=C(O)c2ccccc21 next
Reply | inactive

Ask | Query CCCCCC/C=C/C=O next
Reply | inactive

Ask | Query Cc1ccc(C(N)=O)cc1N next
Reply | inactive

Ask | Query Cc1ccc2c(ccc3ccccc32)c1 next
Reply | inactive

Ask | Query Oc1ccc2c(c1)OCO2 next
Reply | inactive

Ask | Query CN1CCC(=C2c3ccccc3CCc3sccc32)CC1 next
Reply | inactive

Ask | Query CCN(CC)CCNC(C(=O)OCCC(C)C)c1ccccc1 (stereo not given) next
Reply | inactive

Ask | Query CN1CCN(C2=Nc3cc(Cl)ccc3Nc3ccccc32)CC1 next
Reply | inactive

Ask | Query O=C(NS(=O)(=O)/C=C/c1cccs1)c1ccc(F)cc1Br next
Reply | inactive
